Field: T/C. Provide a value for each of the compounds that follow.
Tested on: P388 leukemia ip, CD2F1 mice, survival T/C
Test: NCI In Vivo Anticancer Drug Screen. Data for tumor model P388 Leukemia (intraperitoneal) in CD2F1 (CDF1) mice
Settings: endpoint: median survival time; dose: 50.0 mg/kg/injection; schedule: Q01DX009 (ip); vehicle: Klucel (hydroxypropylcellulose) (HPC); higher = longer survival
Toxic doses and inconclusive results are not listed.

I have 3 compounds here; please give me T/C for each one.
1. CN(C)P1(=O)OCC(C(C)(C)C)CN1C (stereo unspecified)
2. C=C1C(=O)OC2(C)CCCCC12 (stereo unspecified)
3. Cn1/c(=N\N)sc2ccc(S(=O)(=O)O)cc21

1: 100 % of control; 2: 92 % of control; 3: 97 % of control

Record T/C for all entries; do not skip any.
1. C[n+]1cc2ccccc2cc1CC(=S)[S-]
2. CCCCCC1C(=O)CNC1(C(=O)OCC)C(=O)OCC (stereo unspecified)
3. Cc1cc(Br)ccc1N=c1scc(-c2ccc(Cl)cc2)n1C
4. Cc1ccc([N+](=O)[O-])cc1I
5. CC1=NN(c2ccc(S(=O)(=O)O)cc2)C(=O)C1N=Nc1ccc(C)c(S(=O)(=O)Nc2ccccc2)c1 (stereo unspecified)

["98 % of control", "104 % of control", "95 % of control", "99 % of control", "101 % of control"]

* * *

Tested on: P388 leukemia ip, CD2F1 mice, survival T/C
Experiment: NCI In Vivo Anticancer Drug Screen. Data for tumor model P388 Leukemia (intraperitoneal) in CD2F1 (CDF1) mice
Conditions: endpoint: median survival time; dose: 50.0 mg/kg/injection; schedule: Q01DX005 (ip); vehicle: Klucel (hydroxypropylcellulose) (HPC); higher = longer survival
Inconclusive results and toxic doses are left out.
measured_property: T/C

Answered examples (3):
Provide measured T/C value, entry: `CC(=O)Nc1ccc(S(=O)(=O)n2c(=O)oc3cc(Cl)ccc32)cc1`
86 % of control

Dear colleague, please send me the reported T/C for `c1cnc2c3ccncc3c3nc(-c4ccncc4)[nH]c3c2c1` when you can.
91 % of control

Give the measured T/C for `O=C1/C(=C/c2ccc3c(c2)OCO3)SC(=S)N1c1ccc(Cl)c(Cl)c1`
103 % of control

With those in mind, consider the next compound.
Determine its reported T/C: CC1CCC2(OC1)OC1CC3C4CC=C5CC(O)CCC5(C)C4CCC3(C)C1C2C (centres undefined)
100 % of control

* * *

System: P388 leukemia ip, CD2F1 mice, survival T/C
Experiment: NCI In Vivo Anticancer Drug Screen. Data for tumor model P388 Leukemia (intraperitoneal) in CD2F1 (CDF1) mice
Conditions: endpoint: median survival time; dose: 12.5 mg/kg/injection; schedule: Q01DX009 (ip); vehicle: water; higher = longer survival
Description: The antitumor activity of compounds was measured in mice bearing transplantable tumors. Survival or tumor size were measured and the results are expressed as the measurement made in the treated group (T) divided by the measurement made in the vehicle treated control group (C). The tumor model used in this assay is P388 Leukemia (intraperitoneal) in CD2F1 (CDF1) mice
Inconclusive results and toxic doses are left out.
So I've got a bunch of molecules here, and I need their T/C values.

Examples from the recorded data:
Specify measured T/C for `O=NNc1ccc(Sc2ccc(NN=O)nc2)cc1` .
100 % of control

Report T/C for `C=C1C(=O)O[C@H]2C[C@H]3O[C@H]3[C@@H]12`
101 % of control

Name the recorded T/C of the item `Nc1nc(-c2cccc3ccccc23)cc2ccccc12` in your answer.
124 % of control

Give T/C for the following molecule: NC(CSC(c1ccccc1)(c1ccccc1)c1ccc2ccccc2c1)C(=O)O (stereo not drawn)
216 % of control

Answer with the recorded T/C for the molecule listed here: `COc1cc2c[n+]3c4c(cccc4c2cc1OC)CCC3`
109 % of control

Indicate its recorded T/C; the molecule in question is `CCCCOc1ccc(NN=O)cn1`
99 % of control

Can you give me T/C for all of these, one by one?
1. Cc1cc(NN=O)nc(C)c1C#N
2. COc1ccc2nc3cc(Cl)ccc3c(NCCCN3CCCC3)c2n1

116 % of control
102 % of control

* * *

System: P388 leukemia ip, CD2F1 mice, survival T/C
Assay: NCI In Vivo Anticancer Drug Screen. Data for tumor model P388 Leukemia (intraperitoneal) in CD2F1 (CDF1) mice
Conditions: endpoint: median survival time; dose: 100.0 mg/kg/injection; schedule: Q01DX009 (ip); vehicle: saline
Toxic doses and inconclusive results are not listed. The calls were made as follows: active = survival T/C of 150% or more; inactive = T/C below 125% in these data.
Result category, one only: active, inactive

Name the outcome recorded for `C[N+](C)(C)CCOP(=O)([O-])OC1CCCC1` in the assay.
inactive

Look up the recorded call for `C=CCN1Cc2ccccc2-c2ccccc2C1` in this test.
inactive

Recorded call for CN(N=O)C(=O)NCCNC(=O)C1OC(n2ccc(=O)[nH]c2=O)C(O)C1O (stereo not given) ?
inactive

---
For `CNc1cc2nc3ccccc3nc2cc1O` , what call appears in the results of this test?
inactive

Outcome logged for NC(CS)C(=O)O.[Cl-].[Cl-].[Cl-].[Cl-].[Pt+2] (stereo not given) in this assay:
inactive

* * *

So I've got a bunch of molecules here, and I need their T/C values.
Tested on: P388 leukemia ip, CD2F1 mice, survival T/C
Test: NCI In Vivo Anticancer Drug Screen. Data for tumor model P388 Leukemia (intraperitoneal) in CD2F1 (CDF1) mice
Details: endpoint: median survival time; dose: 240.0 mg/kg/injection; schedule: Q01DX005 (ip); vehicle: saline with Tween-80; higher = longer survival
Toxic doses and inconclusive results are not listed.

Supply T/C value. Item: COc1cc([C@H]2c3cc4c(cc3CC3COC(=O)[C@@H]32)OCO4)cc(Br)c1O (stereo partly specified)
110 % of control

Indicate its recorded T/C; the molecule in question is `NC(=O)c1csc([C@@H](O)Cc2ccccc2)n1`
106 % of control

Tell us which T/C value is on record for `Cc1ccc(-c2nnc(N)o2)cc1`
99 % of control

In one line, give reported T/C of the entry `Cc1c(-c2ccc(Cl)cc2)n[nH]c1-c1[nH]nc(-c2ccc(Cl)cc2)c1C` .
94 % of control

Give the measured T/C for `COc1ccccc1NC(=O)c1cc2cc(Br)ccc2cc1O`
108 % of control

# context switch: different molecule, same T/C
// fetch T/C given entry `O=C(/C(=C(/[O-])C(F)(F)F)[n+]1cccc2ccccc21)C(F)(F)F`
99 % of control

* * *

System: P388 leukemia ip, CD2F1 mice, survival T/C
Assay: NCI In Vivo Anticancer Drug Screen. Data for tumor model P388 Leukemia (intraperitoneal) in CD2F1 (CDF1) mice
Conditions: endpoint: median survival time; dose: 400.0 mg/kg/injection; schedule: Q04DX002 (ip); vehicle: Klucel (hydroxypropylcellulose) (HPC); higher = longer survival
Toxic doses and inconclusive results are not listed.
measured_property: T/C

Please review the following examples before continuing.
Fetch value of T/C on P388 leukemia ip, CD2F1 mice, survival T/C for C=COC(=O)C(Cc1ccc(OC)cc1)NC(=O)OCc1ccccc1 (centres undefined) .
94 % of control

Fetch value of T/C on P388 leukemia ip, CD2F1 mice, survival T/C for `CCC(=O)c1c(C)oc2ccc(O)cc12` .
90 % of control

GET T/C | system: P388 leukemia ip, CD2F1 mice, survival T/C | item: `Cc1ccc(NC(=O)CCSC(=O)Nc2ccc(C)cc2)cc1`
104 % of control

Please turn your attention to the following entry.
Provide the reported T/C (system: P388 leukemia ip, CD2F1 mice, survival T/C) for O=C1c2ccccc2CC12OC2c1ccncc1 (centres undefined)
106 % of control

* * *

Please go through the items and note down their T/C.
Tested on: P388 leukemia ip, CD2F1 mice, survival T/C
Assay: NCI In Vivo Anticancer Drug Screen. Data for tumor model P388 Leukemia (intraperitoneal) in CD2F1 (CDF1) mice
Conditions: endpoint: median survival time; dose: 200.0 mg/kg/injection; schedule: Q04DX003 (ip); vehicle: saline; higher = longer survival
Inconclusive results and toxic doses are left out.

Examples from the recorded data:
System P388 leukemia ip, CD2F1 mice, survival T/C. Read-out T/C. Item `CC(/C=N\Nc1ccc(C(=O)O)cc1)=N/N(C)C` . Report value.
98 % of control

Param request: T/C | system P388 leukemia ip, CD2F1 mice, survival T/C | item O=C1OC(=O)C2C3C=CC(C4C=C(C5CC5)C43)C12 (stereo unspecified)
107 % of control

Fill: T/C (P388 leukemia ip, CD2F1 mice, survival T/C) for this compound `COc1ccc(C(=O)CCS(=O)(=O)CCC(=O)c2ccc(OC)cc2)cc1`
91 % of control

State T/C on P388 leukemia ip, CD2F1 mice, survival T/C. Entry: CCCCCCCCCCCCCCC(Cl)C/[N+]([O-])=[N+](/[O-])CC(Cl)CCCCCCCCCCCCCC (stereo unspecified)
92 % of control

Under P388 leukemia ip, CD2F1 mice, survival T/C: report T/C of `CC(=O)Nc1ccc(S(=O)(=O)OC(C)C)cc1` .
113 % of control

Field: next compound
Tell me T/C of `CCC[CH2][Sn]([N]=C=S)([N]=C=S)[N]=C=S.O=P(c1ccccc1)(c1ccccc1)c1ccccc1.O=P(c1ccccc1)(c1ccccc1)c1ccccc1` when tested on P388 leukemia ip, CD2F1 mice, survival T/C.
100 % of control
